- Study system: PDGFRb (Homo sapiens)
- Construct: The kinase domain of PDGFRβ was assayed in 50 mM Hepes; purchased Invitrogen P3082
- Experimental protocol: PDGFRb kinase in vitro biochemical assay (alphascreen)
- Cond: tested at about 1 μM; read-out: PDGF RK BETA percent inhibition
- Protocol: The IC50 values for the inhibition of RTKs were determined in the alphascreen format measuring the inhibition by compound of phosphate transfer to a substrate by the respective enzyme. […] The kinase domain of cKIT was assayed in 50 mM Hepes, pH=7.5, 5 mM MgCl2, 10 mM MnCl2, 1 mM DTT, 0.1% BSA with 0.06 uM biotinylated peptide substrate (GGLFDDPSYVNVQNL-NH2) and 15 uM ATP (ATP KM apparent=15 uM). […] Both reactions were incubated overnight and read on the Alphascreen reader. […]
Readout label: inhibition at 1 µM

Query :: Reported inhibition at 1 µM for c1nc(Oc2ccc3nc(NCC4CCCCC4)sc3c2)c2sccc2n1 [Compound 38] : what is it?
Result :: 83%

Query :: Item under review: O[C@@H]1CCCC[C@H]1Nc1nc2ccc(Oc3cncc(-c4cncs4)c3)cc2s1 [Compound 70] . Reported inhibition at 1 µM?
Result :: 13%

Query :: GET /values?readout=inhibition at 1 µM&item= N#Cc1ccc(Oc2ccc3nc(NCC4CCCCC4)sc3c2)cn1 [Compound 86]
Result :: 1%

###

- Study system: PDGFRb (Homo sapiens, UniProt P09619)
- Construct: The kinase domain of PDGFRβ was assayed in 50 mM Hepes; purchased Invitrogen P3082
- Sequence (P09619 600-962 limits assumed): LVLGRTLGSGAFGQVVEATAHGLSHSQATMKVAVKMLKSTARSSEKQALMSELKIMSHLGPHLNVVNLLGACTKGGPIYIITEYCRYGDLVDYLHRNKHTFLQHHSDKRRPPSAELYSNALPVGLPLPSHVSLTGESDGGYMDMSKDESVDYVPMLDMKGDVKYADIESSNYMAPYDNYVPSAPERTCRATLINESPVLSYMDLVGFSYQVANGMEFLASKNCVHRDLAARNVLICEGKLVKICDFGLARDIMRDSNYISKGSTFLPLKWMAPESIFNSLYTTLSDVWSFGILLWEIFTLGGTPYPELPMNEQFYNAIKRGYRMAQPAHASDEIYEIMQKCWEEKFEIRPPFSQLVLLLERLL
- Experimental protocol: PDGFRb kinase in vitro biochemical assay (alphascreen)
- Cond: tested at about 1 μM; read-out: PDGF RK BETA percent inhibition
Collected inhibition at 1 µM values appear next to each entry.
Unit % implied. Number only.

Chemical string: Nc1ccc(-c2nccc(Oc3ccc4nc(N[C@@H]5CCCC[C@H]5O)sc4c3)n2)cn1
Study system: PDGFRb (Homo sapiens, UniProt P09619)
Readout label: inhibition at 1 µM
Observed value: 11
--
Chemical string: CN1CCN(c2ccc(-c3cc(Oc4ccc5nc(N[C@@H]6CCCC[C@H]6O)sc5c4)cnc3Cl)cn2)CC1
Study system: PDGFRb (Homo sapiens, UniProt P09619)
Readout label: inhibition at 1 µM
Observed value: 9
--
Chemical string: CNC(=O)c1cncc(Oc2ccc3nc(N[C@@H]4CCCC[C@H]4O)sc3c2)n1
Study system: PDGFRb (Homo sapiens, UniProt P09619)
Readout label: inhibition at 1 µM
Observed value: 12

Switching to the query record.
Query :: Missing value: inhibition at 1 µM, PDGFRb (Homo sapiens, UniProt P09619), entry O[C@@H]1CCCC[C@H]1Nc1nc2ccc(Oc3cncc(-c4cn[nH]c4)n3)cc2s1 . Fill in?
Result :: 23

###

- Study system: PDGFRb (Homo sapiens, UniProt P09619)
- Construct: The kinase domain of PDGFRβ was assayed in 50 mM Hepes; purchased Invitrogen P3082
- Experimental protocol: PDGFRb kinase in vitro biochemical assay (alphascreen)
- Cond: tested at about 1 μM; read-out: PDGF RK BETA percent inhibition
Readout label: inhibition at 1 µM (%)
Respond with the bare value in %.

Query :: Item under review: O[C@@H]1CCCC[C@H]1Nc1nc2ccc(Oc3cncc(-c4ccn[nH]4)c3)cc2s1 . Reported inhibition at 1 µM?
Result :: 9

Query :: Which inhibition at 1 µM value belongs to Nc1cc(Oc2ccc3nc(NCC4CCCCC4)sc3c2)ncn1 ?
Result :: 46

Query :: I am curious: what inhibition at 1 µM value has been reported for Cn1nccc1-c1cc(Oc2ccc3nc(N[C@@H]4CCCC[C@H]4O)sc3c2)ncn1 ?
Result :: 0

Query :: Given the entry COc1cncc(-c2cncc(Oc3ccc4nc(N[C@@H]5CCCC[C@H]5O)sc4c3)c2)c1 , report its measured inhibition at 1 µM.
Result :: 1

Query :: For Nc1ccc(-c2cncc(Oc3ccc4nc(N[C@@H]5CCCC[C@H]5O)sc4c3)n2)cn1 , what is its reported inhibition at 1 µM?
Result :: 19

Query :: What does the record list as inhibition at 1 µM for CC(=O)NCCNc1cc(Oc2ccc3nc(NCC4CCCCC4)sc3c2)nc(N)n1 ?
Result :: 0

Query :: What inhibition at 1 µM value was documented for this compound, O[C@@H]1CCCC[C@H]1Nc1nc2ccc(Oc3cncc(-c4ccnc(N5CCOCC5)c4F)c3)cc2s1 ?
Result :: 6

Query :: Entry O[C@@H]1CCCC[C@H]1Nc1nc2ccc(Oc3cncc(-c4cnc5[nH]ccc5c4)c3)cc2s1 has what inhibition at 1 µM?
Result :: 8

Query :: Request the reported inhibition at 1 µM associated with O[C@@H]1CCCC[C@H]1Nc1nc2ccc(Oc3cnc(-c4cccnc4)c(-c4cccnc4)c3)cc2s1
Result :: 16

Query :: Please give the measured inhibition at 1 µM for this compound: O[C@@H]1CCCC[C@H]1Nc1nc2ccc(Oc3ccnc(-c4cccnc4)n3)cc2s1
Result :: 8
